- experimentalSystem: PARP-1 F2 K131I (Homo sapiens, UniProt P09874 103-214, K131I)
- Sequence (P09874 103-214 K131I): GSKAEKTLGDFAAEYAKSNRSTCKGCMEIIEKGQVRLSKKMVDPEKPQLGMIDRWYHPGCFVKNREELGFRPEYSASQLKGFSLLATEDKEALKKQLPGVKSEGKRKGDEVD
- assayDetails: fluorescence anisotropy; 25 mM NaCl, one-site fit; 50 mM Tris-HCl pH 7.0, 150 uM ZnSO4, 4 mM DTT, 25 C; NaCl 0-200 mM (T2, as in cof; 10 nM DNA) or 25 mM (T3 mutants; 25 nM DNA)
- measurementConditions: protein: recombinant; label: fluorescein-dT at T8; single-chain dumbbell, 18 bp with central nick, two tetraloops
readout: Kd (nM)
Give bare numbers, in nM.

Challenge: # get_value(readout='Kd', item= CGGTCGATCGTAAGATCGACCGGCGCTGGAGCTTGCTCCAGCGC (structured_DNA, 5'-phosphate) [44-nt nicked dumbbell, 5'-phosphate, fluorescein-dT] )
Response given: 1570

All values here come from paper PMC3094755.
